test_name: PAMPA blood brain barrier permeability
Assay type: in vitro ADME
test_context: read-out: Permeable
Experimental: The ability of compounds, especially those intended to act in the CNS, to penetrate the blood-brain barrier (BBB) is an important property to consider in the initial stages of drug candidate screening. The PAMPA assay is a commonly used test to assess the passive permeation of the BBB [17]. In our study, caffeine was used as a highly permeable compound. […] After 5 h of incubation at room temperature, the results were analyzed by LC-MS, and the permeability coefficients (Pe) were calculated. […]
Papp at 5 h, 100 μM values by entry

[
  {
    "compound": "C#CCn1c(=O)c2c(nc(NCc3cccc(Br)c3)n2C)n(C)c1=O",
    "Papp at 5 h, 100 μM": "≤ 1.5 ×10⁻⁶ cm/s"
  },
  {
    "compound": "C#CCn1c(=O)c2c(nc(NCc3c(F)cccc3Cl)n2C)n(C)c1=O",
    "Papp at 5 h, 100 μM": "≤ 1.5 ×10⁻⁶ cm/s"
  },
  {
    "compound": "Cn1c(=O)c2c(ncn2C)n(C)c1=O [Caffeine, reference compound]",
    "Papp at 5 h, 100 μM": "≥ 1.5 ×10⁻⁶ cm/s"
  },
  {
    "compound": "C#CCn1c(=O)c2c(nc(NCc3ccccc3Cl)n2C)n(C)c1=O",
    "Papp at 5 h, 100 μM": "≥ 1.5 ×10⁻⁶ cm/s"
  }
]
